assay: Mouse PK, oral 1 mg/kg; type: in vivo; conditions: female, FVB, serum, mice, oral (gavage) 1 mg/kg
Reported metric: AUC (ng·h/mL)
Please reply with the bare figure in ng·h/mL and do not write the unit itself.

Below, 3 compounds whose answers are already recorded.
1. CNC(=O)c1ccc(N2CCCN(c3ccnc4sc(C(N)=O)c(N)c34)CC2)cc1 [15v]    21.8
2. CN(C)C(=O)c1ccc(N2CCCN(c3ccnc4sc(C(N)=O)c(N)c34)CC2)cc1 [15u]    79.3
3. NC(=O)c1sc2nccc(N3CCCN(c4ccccc4)CC3)c2c1N [15k]    7.6

Consider the additional compound presented here.
Task: Please indicate AUC recorded for CN(C)C(=O)Cc1ccc(N2CCCN(c3ccnc4sc(C(N)=O)c(N)c34)CC2)cc1 [15w]
Output: 29.2
